# % Inhibition (of the growth rate) per entry
- System: E. coli
- Test summary: Growth rate analysis in liquid media of cells expressing induced peptides
- Format: cell-based
- Condition info: ALS225, minimal media, 1 mM IPTG, versus induced pLAC11 vector; average of three determinations
No end group written: not given here.
Give just the number in %; leave the unit off.

Consider the worked cases shown below.
[[record]]
substance = "pPep17: 12 aa inhibitor peptide (SEQ ID NO:51), C-terminal proline (MLGLEATYPFNP; stabilized peptide)"
val = 28

[[record]]
substance = "pPep6: 42 aa inhibitor peptide (SEQ ID NO:39); last 25 aa could form a hydrophobic membrane-spanning domain (MSGGHVTRECKSAMSNRWIYVIRILMFDSLSSISFNAVVYHS; also: stabilized peptide)"
val = 27

[[record]]
substance = "pPep12: 14 aa two day inhibitor peptide (SEQ ID NO:46), two prolines near the C-terminus; printed pPep22 in Table 10 (MNGRTKRIRDPPAA; stabilized peptide)"
val = 82

[[record]]
substance = "pPep13: 18 aa inhibitor peptide (SEQ ID NO:48), C-terminal proline (MDREVMCAAKQEWKERTP; stabilized peptide)"
val = 28


Q: Write down the reported % Inhibition (of the growth rate) of pPep7: 6 aa inhibitor peptide (SEQ ID NO:40) (MYLFIG; stabilized peptide) , test system: E. coli.
Result: 26
